# Test system: P388 leukemia ip, CD2F1 mice, survival T/C
# Assay name: NCI In Vivo Anticancer Drug Screen. Data for tumor model P388 Leukemia (intraperitoneal) in CD2F1 (CDF1) mice
# Condition: endpoint: median survival time; dose: 1.56 mg/kg/injection; schedule: Q01DX009 (ip); vehicle: Klucel (hydroxypropylcellulose) (HPC); higher = longer survival
Toxic doses and inconclusive results are not listed.
# reported T/C; entries follow

# count of solved cases: 3
In [3]: df
Out[3]:
                                   compound  property_name    recorded_value
0  COc1cccc2c1C(=O)c1c(O)c3c(c(O)c1C2=O)C[C@@](O)(C(=O)CO)C[C@@H]3OC1CC(NC=O)C(O)C(C)O1 (some centres undefined)            T/C   95 % of control
1               N#Cc1ccc(Br)cc1[N+](=O)[O-]            T/C  102 % of control
2        [F][Sn]([F])([c]1ccccc1)[c]1ccccc1            T/C  196 % of control

Please turn your attention to the following entry.
Value of T/C reported for the compound `C=C(C)C(=O)O[C@H]1C[C@@]2(C)OC(=CC2=O)/C(CO)=C\[C@H]2OC(=O)C(=C)[C@H]12` is 108 % of control

---

# reported T/C; entries follow
# Test system: P388 leukemia ip, CD2F1 mice, survival T/C
# Assay name: NCI In Vivo Anticancer Drug Screen. Data for tumor model P388 Leukemia (intraperitoneal) in CD2F1 (CDF1) mice
# Condition: endpoint: median survival time; dose: 200.0 mg/kg/injection; schedule: Q01DX005 (ip); vehicle: Klucel (hydroxypropylcellulose) (HPC); higher = longer survival
Inconclusive results and toxic doses are left out.

# count of solved cases: 3
In [3]: df
Out[3]:
                                   compound                                    system    recorded_value
0      CCOc1ccc(N2CC(=O)N3CCCCN3C(=O)C2)cc1  P388 leukemia ip, CD2F1 mice, survival T/C  105 % of control
1  CC(OC(=O)C1C2C=CC(C2)C1C(=O)O)c1cccnc1 (configuration not stated)  P388 leukemia ip, CD2F1 mice, survival T/C   98 % of control
2       CCc1nc(N)nc(N)c1-c1ccc(N2CCNCC2)cc1  P388 leukemia ip, CD2F1 mice, survival T/C  101 % of control

Value of T/C reported for the compound CCCCC(NC(=O)C(CCCC)NC(=O)OCc1ccccc1)C(=O)O (configuration not stated) is 95 % of control

Value of T/C reported for the compound `C=C(C)COc1ccc(C)cc1Br` is 113 % of control

Value of T/C reported for the compound `COc1ccc(O)c(C(C)=O)c1` is 98 % of control

Value of T/C reported for the compound `CC(C)(C)N1C(=O)NCS1(=O)=O` is 115 % of control

---

# reported T/C; entries follow
# Tested on: P388 leukemia ip, CD2F1 mice, survival T/C
# Assay name: NCI In Vivo Anticancer Drug Screen. Data for tumor model P388 Leukemia (intraperitoneal) in CD2F1 (CDF1) mice
# Condition: endpoint: median survival time; dose: 200.0 mg/kg/injection; schedule: Q01DX009 (ip); vehicle: Klucel (hydroxypropylcellulose) (HPC); higher = longer survival
Toxic doses and inconclusive results are not listed.

>>> df
                           line_notation                                    system  property_name    recorded_value
0  C=CCSc1nc2ccc(NC(=O)/C=C/C(=O)O)cc2s1  P388 leukemia ip, CD2F1 mice, survival T/C            T/C  102 % of control

Value of T/C reported for the molecule `O=S(=O)(NCCSSCCNS(=O)(=O)c1ccc(Cl)cc1)c1ccc(Cl)cc1` is 88 % of control

Value of T/C reported for the molecule `Ic1ccc2c(c1)N(c1ccccc1)c1cc(N=c3ccc4nc5ccc(I)cc5n(-c5ccccc5)c-4c3)ccc1N2` is 89 % of control

---

# System: P388 leukemia ip, CD2F1 mice, survival T/C
# Assay name: NCI In Vivo Anticancer Drug Screen. Data for tumor model P388 Leukemia (intraperitoneal) in CD2F1 (CDF1) mice
# Condition: endpoint: median survival time; dose: 100.0 mg/kg/injection; schedule: Q01DX009 (ip); vehicle: saline with Tween-80; higher = longer survival
Toxic doses and inconclusive results are not listed.
# reported T/C; entries follow

                                   molecule  property_name   recorded_value
0  O=C(Nc1ccccc1)/C(N=Nc1cc(S(=O)(=O)O)ccc1Cl)=N/Nc1cc(S(=O)(=O)O)ccc1Cl            T/C  96 % of control

Value of T/C reported for the molecule `O=C1C(Br)=Cc2cccc3cccc1c23` is 100 % of control

Value of T/C reported for the molecule CCCC(C(CC)CNC(=O)Nc1cccc2ccccc12)N(C)C(=O)Nc1cccc2ccccc12 (configuration not stated) is 92 % of control

Value of T/C reported for the molecule `Nc1nc(N)c(N=O)c(Nc2ccccc2)n1` is 99 % of control

Value of T/C reported for the molecule `CCCC#CC(=O)OC` is 100 % of control

Value of T/C reported for the molecule `COc1cc(C(=O)c2c(OC)cccc2C(=O)O)c(OC)cc1C` is 110 % of control

Value of T/C reported for the molecule `CCC[CH2][Sn][Cl]` is 114 % of control

---

# Test system: P388 leukemia ip, CD2F1 mice, survival T/C
# Assay name: NCI In Vivo Anticancer Drug Screen. Data for tumor model P388 Leukemia (intraperitoneal) in CD2F1 (CDF1) mice
# Condition: endpoint: median survival time; dose: 100.0 mg/kg/injection; schedule: Q01DX005 (ip); vehicle: Klucel (hydroxypropylcellulose) (HPC); higher = longer survival
Toxic doses and inconclusive results are not listed.
Property name: T/C

# count of solved cases: 5
>>> print(df.to_string())
                                   compound  property_name    recorded_value
0        COc1ccc(COC(=O)Sc2nc(C)cc(C)n2)cc1            T/C  100 % of control
1  COC(=O)C1C2c3ccccc3C(c3ccccc32)C1(C)C(=O)OC (configuration not stated)            T/C  102 % of control
2  CCn1c2ccc(C=O)cc2c2cc([N+](=O)[O-])ccc21            T/C   86 % of control
3  C(/Oc1ccc(-c2ccccc2)cc1)=C(/c1ccccc1)c1ccccc1-c1ccccc1            T/C   99 % of control
4          CC(=O)Oc1nnc(OC(C)=O)n1-c1ccccc1            T/C  111 % of control

Value of T/C reported for the compound COC(=O)Nc1c2c(nc3ccccc13)-c1ccccc1C(C)(C)C2OC (configuration not stated) is 108 % of control

Value of T/C reported for the compound `COc1ccc(/C=C2/N=C(c3ccc(Cl)c(Cl)c3)OC2=O)cc1OC` is 88 % of control

Value of T/C reported for the compound `CCn1c(C)nc([N+](=O)[O-])c1Sc1ncn[nH]1` is 121 % of control

Value of T/C reported for the compound `Cc1ccc(NC(=S)NNC(=S)NNc2ccccc2)cc1C` is 95 % of control

Value of T/C reported for the compound `Cc1c[nH]c2nc(C)n(-c3ccccc3F)c(=N)c12` is 91 % of control

Value of T/C reported for the compound `C=C(C)COc1ccc(C)cc1Br` is 103 % of control

Value of T/C reported for the compound `CO[C@@H]1C2=CC=CC=C[C@H]2n2c(=O)n(C)c(=O)n21` is 98 % of control

---

# System: P388 leukemia ip, CD2F1 mice, survival T/C
# Assay name: NCI In Vivo Anticancer Drug Screen. Data for tumor model P388 Leukemia (intraperitoneal) in CD2F1 (CDF1) mice
# Condition: endpoint: median survival time; dose: 100.0 mg/kg/injection; schedule: Q01DX001 (ip); vehicle: Klucel (hydroxypropylcellulose) (HPC); higher = longer survival
Inconclusive results and toxic doses are left out.
Property name: T/C

# count of solved cases: 3
>>> df
                                   compound    recorded_value
0                   CC(C)N[C@@H]1CCC[C@H]1O  105 % of control
1  Cc1ccc(S(=O)(=O)N/N=C/c2c(-c3ccccc3)nc3n2CCS3)cc1   99 % of control
2  CC(C)C1NC(C(C)C)N2C(C(C)C)N12 (centres undefined)  100 % of control

Value of T/C reported for the compound `Cc1c2c(nn1C)CC(C)(C)OC2=O` is 95 % of control

Value of T/C reported for the compound `O=C1/C(=C/c2ccc3c(c2)OCO3)C2CCC(N2)/C1=C\c1ccc2c(c1)OCO2` is 96 % of control

Value of T/C reported for the compound `Cn1c(Br)c(/C=N/NC(N)=S)c2ccccc21` is 108 % of control

Value of T/C reported for the compound O=C1C(N=Nc2ccccc2Cl)C(O)N(c2ccccc2)C(=S)N1c1cccc(Cl)c1Cl (centres undefined) is 98 % of control

Value of T/C reported for the compound `Cc1ccc(/C2=C(\c3ccc(C)cc3)N(c3ccc(C)cc3)CCCCN2c2ccc(C)cc2)cc1` is 92 % of control
